Cited source for all entries: ChEMBL document CHEMBL4425179

Entries annotated with measured GI50
# Tested on: HCT-116
# test_details: Growth inhibition of human HCT116 cells after 7 days by clonogenic survival assay
# Type: functional
# details: HCT-116, 168 h, read-out: GI50
Record the value in nM, omitting the unit from your answer.

>  <compound>
COc1cccc(C2CC(c3ccc4ccccc4c3O)=NN2C(=S)Nc2ccccc2OC)c1 (centres undefined)

>  <result_unit>
nM

>  <GI50>
3920

$$$$
>  <compound>
COc1ccc(C2CC(c3ccc4ccccc4c3O)=NN2C(=S)Nc2ccc(OC)cc2OC)cc1 (centres undefined)

>  <result_unit>
nM

>  <GI50>
2470

$$$$
>  <compound>
COc1cccc(C2CC(c3ccc4ccccc4c3O)=NN2C(=S)Nc2ccccc2)c1 (centres undefined)

>  <result_unit>
nM

>  <GI50>
321

$$$$
>  <compound>
COc1ccc(C2CC(c3ccc4ccccc4c3O)=NN2C(=S)Nc2cccc(OC)c2)cc1 (centres undefined)

>  <result_unit>
nM

>  <GI50>
196

$$$$
>  <compound>
COc1cccc(C2CC(c3ccc4ccccc4c3O)=NN2C(=S)Nc2cc(OC)c(OC)c(OC)c2)c1 (centres undefined)

>  <result_unit>
nM

>  <GI50>
201

$$$$

Problem: Param item = COc1ccc(NC(=S)N2N=C(c3ccc4ccccc4c3O)CC2c2cccc(OC)c2)cc1 (centres undefined) ; retrieve measured GI50.
Solution: 318

Problem: Also COc1ccc(C2CC(c3ccc4ccccc4c3O)=NN2C(=S)Nc2ccccc2OC)cc1 (centres undefined) ?
Solution: 3540

Problem: Also COc1ccc(C2CC(c3ccc4ccccc4c3O)=NN2C(=S)Nc2ccccc2)cc1 (centres undefined) ?
Solution: 239

Problem: Also COc1ccccc1C1CC(c2c(O)ccc3ccccc23)=NN1C(=S)Nc1ccccc1 (centres undefined) ?
Solution: 2500

----------
# tested_on: Aurora kinase A (Homo sapiens, UniProt O14965)
# Sequence (O14965 whole entry): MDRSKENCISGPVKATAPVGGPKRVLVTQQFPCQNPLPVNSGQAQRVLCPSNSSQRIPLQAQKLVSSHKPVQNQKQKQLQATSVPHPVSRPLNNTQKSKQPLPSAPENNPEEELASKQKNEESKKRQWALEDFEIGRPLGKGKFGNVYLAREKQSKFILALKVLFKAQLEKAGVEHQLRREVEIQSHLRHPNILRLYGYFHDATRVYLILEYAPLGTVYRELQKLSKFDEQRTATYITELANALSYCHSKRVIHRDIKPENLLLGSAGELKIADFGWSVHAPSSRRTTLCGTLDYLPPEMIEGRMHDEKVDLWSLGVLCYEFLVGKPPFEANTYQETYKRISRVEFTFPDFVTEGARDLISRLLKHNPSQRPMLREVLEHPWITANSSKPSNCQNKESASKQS
# test_details: Inhibition of human recombinant N-terminal His6-tagged full-length aurora A expressed in Sf21 insect cells using ER-alpha as substrate after 25 mins by immunoblot analysis
measure_name: pIC50
A value of pIC50 is the negative decimal logarithm of a concentration given in moles per litre.

Problem: Param item = COc1ccc(C2CC(c3ccc4ccccc4c3O)=NN2C(=S)Nc2cccc(OC)c2)cc1 (stereo unspecified) ; retrieve measured pIC50.
Solution: 3.98

----------
Entries annotated with measured log10 GI50
# Tested on: HCT-116
# test_details: Growth inhibition of human HCT116 cells after 7 days by clonogenic survival assay
# Format: functional
# details: HCT-116, 168 h, read-out: GI50
Scale type: logarithmic (base 10). Underlying GI50 unit: µM.

In the examples that follow, each entry is paired with its recorded log10 GI50.
>  <compound>
COc1ccc(NC(=S)N2N=C(c3c(O)ccc4ccccc34)CC2c2ccccc2OC)cc1 (stereo not drawn)

>  <tested_on>
HCT-116

>  <log10 GI50>
-0.13

$$$$
>  <compound>
COc1ccccc1NC(=S)N1N=C(c2c(O)ccc3ccccc23)CC1c1ccccc1OC (stereo not drawn)

>  <tested_on>
HCT-116

>  <log10 GI50>
0.60

$$$$
>  <compound>
COc1ccccc1C1CC(c2c(O)ccc3ccccc23)=NN1C(=S)Nc1cc(OC)c(OC)c(OC)c1 (stereo not drawn)

>  <tested_on>
HCT-116

>  <log10 GI50>
0.00

$$$$
>  <compound>
COc1ccccc1C1CC(c2ccc3ccccc3c2O)=NN1C(=S)Nc1ccccc1 (stereo not drawn)

>  <tested_on>
HCT-116

>  <log10 GI50>
-0.13

$$$$
>  <compound>
COc1ccc(NC(=S)N2N=C(c3ccc4ccccc4c3O)CC2c2ccc(OC)cc2)cc1 (stereo not drawn)

>  <tested_on>
HCT-116

>  <log10 GI50>
-0.63

$$$$

Problem: Param item = COc1ccc(C2CC(c3ccc4ccccc4c3O)=NN2C(=S)Nc2cc(OC)c(OC)c(OC)c2)cc1 (stereo not drawn) ; retrieve measured log10 GI50.
Solution: -0.68

Problem: Also COc1cccc(NC(=S)N2N=C(c3ccc4ccccc4c3O)CC2c2cccc(OC)c2)c1 (stereo not drawn) ?
Solution: -0.57

Problem: Also COc1cccc(NC(=S)N2N=C(c3ccc4ccccc4c3O)CC2c2ccccc2OC)c1 (stereo not drawn) ?
Solution: -0.35

Problem: Also COc1cccc(C2CC(c3ccc4ccccc4c3O)=NN2C(=S)Nc2ccc(OC)cc2OC)c1 (stereo not drawn) ?
Solution: 0.39

Problem: Also COc1ccccc1C1CC(c2ccc3ccccc3c2O)=NN1C(=S)Nc1cc(OC)c(OC)c(OC)c1 (stereo not drawn) ?
Solution: -0.65

Problem: Also COc1ccc(NC(=S)N2N=C(c3ccc4ccccc4c3O)CC2c2ccccc2OC)cc1 (stereo not drawn) ?
Solution: -0.43

Problem: Also COc1ccccc1NC(=S)N1N=C(c2ccc3ccccc3c2O)CC1c1ccccc1OC (stereo not drawn) ?
Solution: 0.69

Problem: Also COc1ccc(NC(=S)N2N=C(c3ccc4ccccc4c3O)CC2c2ccccc2OC)c(OC)c1 (stereo not drawn) ?
Solution: 0.62
